Target: human NLRP3 (Homo sapiens)
Sequence (Q96P20 whole entry): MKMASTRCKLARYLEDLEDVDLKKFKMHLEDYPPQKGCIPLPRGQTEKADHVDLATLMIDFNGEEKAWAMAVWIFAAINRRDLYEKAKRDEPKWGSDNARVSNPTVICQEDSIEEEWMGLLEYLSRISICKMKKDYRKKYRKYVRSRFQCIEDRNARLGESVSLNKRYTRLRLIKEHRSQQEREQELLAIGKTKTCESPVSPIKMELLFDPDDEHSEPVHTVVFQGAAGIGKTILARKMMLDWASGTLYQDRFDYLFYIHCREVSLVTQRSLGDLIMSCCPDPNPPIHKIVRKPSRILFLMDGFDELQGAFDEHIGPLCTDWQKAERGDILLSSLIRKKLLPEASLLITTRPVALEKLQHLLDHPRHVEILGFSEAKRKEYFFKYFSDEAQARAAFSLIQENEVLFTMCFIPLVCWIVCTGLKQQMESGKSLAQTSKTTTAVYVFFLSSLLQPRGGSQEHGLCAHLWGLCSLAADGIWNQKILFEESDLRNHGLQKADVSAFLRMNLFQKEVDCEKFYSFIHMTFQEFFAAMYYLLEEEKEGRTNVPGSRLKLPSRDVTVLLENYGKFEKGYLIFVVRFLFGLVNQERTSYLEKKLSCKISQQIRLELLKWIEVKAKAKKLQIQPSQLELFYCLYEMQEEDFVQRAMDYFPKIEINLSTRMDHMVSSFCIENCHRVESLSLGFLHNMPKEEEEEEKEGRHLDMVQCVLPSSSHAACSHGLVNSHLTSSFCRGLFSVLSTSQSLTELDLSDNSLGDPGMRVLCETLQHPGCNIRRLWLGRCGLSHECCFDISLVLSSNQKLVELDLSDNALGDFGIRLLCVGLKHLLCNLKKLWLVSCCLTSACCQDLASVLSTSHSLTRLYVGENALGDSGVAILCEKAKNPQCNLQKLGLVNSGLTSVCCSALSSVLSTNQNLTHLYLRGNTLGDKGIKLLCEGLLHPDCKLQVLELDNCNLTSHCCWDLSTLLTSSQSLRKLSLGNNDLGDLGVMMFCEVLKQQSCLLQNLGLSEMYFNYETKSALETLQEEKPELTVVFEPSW
Assay: Scintillation Proximity (SPA) NLRP3 Assay, displacement of 3H-MCC950
Assay type: binding
Details: Table C; displacement of 3H-MCC950 from human NLRP3
measuredEndpoint: IC50 (nM)

1. C[C@@H]1CCN(c2nnn[nH]2)C[C@H](NC(=O)Nc2ccc(Cl)cc2F)C1 (single isomer, unassigned) [27A*]; 1400
2. C[C@@H]1C[C@@H](NC(=O)N(C)c2ccc(OC(F)F)cc2)[C@H]2CC[C@@H]1N2c1nnn[nH]1 (single isomer, unassigned) [42A*]; 65
3. C[C@@H]1CCN(c2nnn[nH]2)C[C@H](NC(=O)N(C)c2ccc(Cl)cc2Cl)C1 (single isomer, unassigned) [7A*]; 240
4. C[C@@H]1CCN(c2nnn[nH]2)C[C@H](NC(=O)N(C)c2ccc(OC(F)F)cc2)C1 (single isomer, unassigned) [11A*]; 140
5. C[C@H]1C[C@@H](NC(=O)N(C)c2ccc(OC(F)F)cc2)CN(c2nnn[nH]2)C1 [Compound 39A]; 820
6. C[C@@H]1C[C@@H](NC(=O)N(C)c2ccc(OC(F)F)cc2F)[C@H]2CC[C@@H]1N2c1nnn[nH]1 (single isomer, unassigned) [57A*]; 199
7. C[C@@H]1CCN(c2nnn[nH]2)C[C@H](NC(=O)N(C)c2ccc(OC(F)(F)F)cc2F)C1 (single isomer, unassigned) [24A*]; 110
8. C[C@@H]1CCN(c2nnn[nH]2)C[C@H](NC(=O)N(C)c2ccc(Cl)cc2)C1 (single isomer, unassigned) [4A*]; 96
9. C[C@@H]1CCN(c2nnn[nH]2)C[C@H](NC(=O)N(C)c2ccc(OC(F)(F)F)cc2)C1 (single isomer, unassigned) [10A*]; 200
10. C[C@@H]1CCN(c2nnn[nH]2)C[C@H](NC(=O)N(C)c2ccc(C(F)(F)F)cc2F)C1 (single isomer, unassigned) [13A*]; 550
11. C[C@@H]1CCN(c2nnn[nH]2)C[C@H](NC(=O)N(C)c2ccc(Cl)cc2F)C1 (single isomer, unassigned) [5A*]; 71
12. CN(C(=O)N[C@@H]1CCCN(c2nnn[nH]2)C1)c1ccc(Cl)cc1 [Compound 2A]; 9700
13. CN(C(=O)Nc1cccc(-c2nnn[nH]2)c1)c1ccc(Cl)cc1 [Comparative Example B2, reference compound]; 12500
14. C[C@@H]1C[C@@H](NC(=O)N(C)c2ccc(OC(F)(F)F)cc2)[C@H]2CC[C@@H]1N2c1nnn[nH]1 (single isomer, unassigned) [45A*]; 110
15. O=C(Nc1ccc(Cl)cc1)Nc1cccc(-c2nnn[nH]2)c1 [Comparative Example B1, reference compound]; 190000

* * *

Target: mouse NLRP3 (Mus musculus, UniProt Q8R4B8)
Construct: from tissue; host or cells: whole blood of female CD1 mice
Sequence (Q8R4B8 whole entry): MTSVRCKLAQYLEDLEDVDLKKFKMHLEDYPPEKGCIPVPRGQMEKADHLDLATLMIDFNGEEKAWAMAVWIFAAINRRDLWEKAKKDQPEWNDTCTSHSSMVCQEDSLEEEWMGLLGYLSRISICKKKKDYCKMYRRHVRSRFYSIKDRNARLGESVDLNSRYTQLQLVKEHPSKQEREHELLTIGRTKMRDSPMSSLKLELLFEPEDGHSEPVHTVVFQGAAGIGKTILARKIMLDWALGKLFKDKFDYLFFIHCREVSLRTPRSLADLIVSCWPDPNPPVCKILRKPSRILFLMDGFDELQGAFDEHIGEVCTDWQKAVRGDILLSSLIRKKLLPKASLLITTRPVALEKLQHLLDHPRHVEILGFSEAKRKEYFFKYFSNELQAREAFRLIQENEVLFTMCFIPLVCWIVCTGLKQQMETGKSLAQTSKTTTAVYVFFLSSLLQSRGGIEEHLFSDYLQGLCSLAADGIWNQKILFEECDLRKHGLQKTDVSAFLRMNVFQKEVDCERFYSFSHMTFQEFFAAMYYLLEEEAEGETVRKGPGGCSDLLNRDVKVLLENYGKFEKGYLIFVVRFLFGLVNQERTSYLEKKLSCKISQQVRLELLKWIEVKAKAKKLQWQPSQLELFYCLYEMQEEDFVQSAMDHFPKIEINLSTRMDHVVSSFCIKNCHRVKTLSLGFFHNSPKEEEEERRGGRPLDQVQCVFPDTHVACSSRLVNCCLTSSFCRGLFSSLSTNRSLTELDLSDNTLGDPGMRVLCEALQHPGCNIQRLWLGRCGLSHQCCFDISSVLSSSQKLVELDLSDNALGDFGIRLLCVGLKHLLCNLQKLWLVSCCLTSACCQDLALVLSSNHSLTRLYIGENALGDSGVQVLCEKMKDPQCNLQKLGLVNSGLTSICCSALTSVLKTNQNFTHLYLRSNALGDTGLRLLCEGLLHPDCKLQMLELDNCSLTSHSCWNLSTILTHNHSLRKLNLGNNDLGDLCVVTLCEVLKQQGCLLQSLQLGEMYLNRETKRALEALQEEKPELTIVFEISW
Assay: Mouse Whole Blood (mWB) NLRP3 Assay (LPS/ATP, IL-1b)
Format: cell-based
Conditions: Table B, activity class
pIC50: −log10 of the molar value.
The reader will find reported pIC50 values listed item by item below.
measuredEndpoint: pIC50

1) C[C@@H]1CCN(c2nnn[nH]2)C[C@H](NC(=O)N(C)c2ccc(Cl)cc2)C1 (single isomer, unassigned); > 6.00
2) C[C@@H]1CCN(c2nnn[nH]2)C[C@H](NC(=O)N(C)c2ccc(OC(F)(F)F)cc2)C1 (single isomer, unassigned) [10A*]; > 6.00
3) C[C@@H]1CCN(c2nnn[nH]2)C[C@H](NC(=O)N(C)c2ccc(OC(F)F)cc2)C1 (single isomer, unassigned) [11A*]; > 6.00
